The origin of these recorded values is patent US8569336B2.

assay protocol: Area under the curve determinations of plasma levels in rats (rrAUC), oral 10 mg/kg
Assay type: in vivo
conditions used: rat, plasma 0.5-6 h, read-out: RR AUC (rapid rat AUC, rrAUC)
Entries and their AUC

{"columns": ["compound", "AUC, µM·h"],
 "data": [
  ["COc1ccc2c(c1F)C(=O)N(C[C@@]1(c3cc4cc([C@@]5(C)NC(=O)NC5=O)c(F)cc4o3)NC(=O)NC1=O)C2 (single isomer, unassigned)", 1.04],
  ["COc1ccc2c(c1)C(=O)N(C[C@@]1(c3cc4nc(N5CCCCC5=O)ccc4o3)NC(=O)NC1=O)C2", 0.303],
  ["COc1ccc2c(c1)C(=O)N(C[C@@]1(c3cc4nc(N(c5cn[nH]c5)C5CCN(C)CC5)ccc4o3)NC(=O)NC1=O)C2", 0.064],
  ["COc1ccc2c(c1F)C(=O)N(C[C@@]1(c3cc4nc(N5CC(=O)NC5=O)c(F)cc4o3)NC(=O)NC1=O)C2", 3.19],
  ["COc1ccc2c(c1)C(=O)N(C[C@@]1(c3cc4nc(N5CCCC(C(N)=O)C5)ccc4o3)NC(=O)NC1=O)C2 (stereo partly drawn)", 0.145],
  ["CCNC(=O)N1CCc2oc([C@]3(CN4Cc5ccc(OC)cc5C4=O)NC(=O)NC3=O)cc2C1", 0.011]
]}

----------
target under test: purified catalytic domain of recombinant human TACE (rhTACEc) (Homo sapiens, UniProt P78536, N452Q/S266A)
Construct: 6xHis (C); made in house; host or cells: baculovirus/Hi5 insect cells
Sequence (P78536 215-477 S266A/N452Q): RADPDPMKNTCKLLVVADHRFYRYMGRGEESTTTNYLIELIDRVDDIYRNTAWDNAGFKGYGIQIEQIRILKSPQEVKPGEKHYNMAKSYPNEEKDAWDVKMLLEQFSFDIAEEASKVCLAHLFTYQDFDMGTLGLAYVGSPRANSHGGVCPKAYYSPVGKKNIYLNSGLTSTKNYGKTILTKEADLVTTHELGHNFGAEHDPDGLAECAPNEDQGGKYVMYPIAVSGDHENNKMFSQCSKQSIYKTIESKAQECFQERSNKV
assay protocol: TACE kinetic assay: cleavage of internally quenched peptide substrate TNF-FRET 2 (Ki)
Assay type: biochemical
conditions used: Ki, TNF-FRET 2 substrate
pKi: −log10 of the molar value.
Entries and their pKi
recorded metric: pKi

{"columns": ["molecule", "recorded metric", "numeric value"],
 "data": [
  ["COc1ccc2c(c1)C(=O)N(C[C@@]1(c3cc4ncc(C(N)=O)cc4o3)NC(=O)NC1=O)C2 [Compound 1929]", "pKi", 9.43],
  ["COc1ccc2c(c1)C(=O)N(C[C@@]1(c3cc4ncc(C(N)=O)cc4o3)NC(=O)NC1=O)C2 [Compound 2459]", "pKi", 9.44],
  ["COc1ccc2c(c1)C(=O)N(C[C@@]1(c3cc4nc(-c5cccs5)ccc4o3)NC(=O)NC1=O)C2", "pKi", 9.90],
  ["COc1ccc2c(c1)C(=O)N(C[C@@]1(c3cc4nc(-c5cnn(C)c5)ccc4o3)NC(=O)NC1=O)C2", "pKi", 9.72]
]}

----------
assay protocol: Area under the curve determinations of plasma levels in rats (rrAUC), oral 10 mg/kg
Format: in vivo
conditions used: rat, plasma 0.5-6 h post-dosing, read-out: RR AUC (rapid rat AUC, rrAUC)
recorded metric: log10 AUC (log10 of the value in µM·h)

{"columns": ["compound", "log10 AUC"],
 "data": [
  ["COc1ccc2c(c1F)C(=O)N(C[C@@]1(c3cc4nc(N5CCC(N(C)C)CC5)ccc4o3)NC(=O)NC1=O)C2", -1.43],
  ["COc1ccc2c(c1)C(=O)N(C[C@@]1(c3cc4cc(C5(C)NC(=O)NC5=O)c(F)cc4o3)NC(=O)NC1=O)C2 (stereo partly shown)", -0.75],
  ["COc1ccc2c(c1)C(=O)N(C[C@@]1(c3cc4nc(N5CCN(C)CC5)ccc4o3)NC(=O)NC1=O)C2", -0.37],
  ["COc1ccc2c(c1F)C(=O)N(C[C@@]1(c3cc4cc(F)cnc4o3)NC(=O)NC1=O)C2", 1.42],
  ["COc1ccc2c(c1)C(=O)N(C[C@@]1(c3cc4c(o3)CCN(C)C4)NC(=O)NC1=O)C2", -0.62],
  ["COc1ccc2c(c1)C(=O)N(C[C@@]1(c3cc4nc(N5CC[C@@H](O)C5)ccc4o3)NC(=O)NC1=O)C2", -0.22],
  ["COc1ccc2c(c1)C(=O)N(C[C@@]1(c3cc4nc(-c5ccc(N6CCOCC6)nc5)ccc4o3)NC(=O)NC1=O)C2", -0.16]
]}

----------
Entries and their AUC
assay protocol: Area under the curve determinations of plasma levels in rats (rrAUC), oral 10 mg/kg
Assay type: in vivo
conditions used: rat, plasma 0.5-6 h, read-out: RR AUC (rapid rat AUC, rrAUC)

{"columns": ["compound", "AUC / nM·h"],
 "data": [
  ["CCOC(=O)N1CCc2oc([C@]3(CN4Cc5ccc(OC)cc5C4=O)NC(=O)NC3=O)cc2C1", 4030],
  ["COc1ccc2c(c1F)C(=O)N(C[C@@]1(c3cc4nc(N5C[C@H](O)CC5=O)ccc4o3)NC(=O)NC1=O)C2", 4010],
  ["COc1ccc2c(c1F)C(=O)N(C[C@@]1(c3cc4cc5c(c(-c6cccnc6)c4o3)C(=O)NC5)NC(=O)NC1=O)C2", 614],
  ["COc1ccc2c(c1F)C(=O)N(C[C@@]1(c3cc4nc(C5=CCNCC5)c(F)cc4o3)NC(=O)NC1=O)C2", 101],
  ["COc1ccc2c(c1F)C(=O)N(C[C@@]1(c3cc4nc(N5C[C@@H](O)CC5=O)ccc4o3)NC(=O)NC1=O)C2", 667],
  ["CCC1(c2ccc3oc([C@]4(CN5Cc6ccc(OC)c(F)c6C5=O)NC(=O)NC4=O)cc3c2)NC(=O)NC1=O (stereo partly shown)", 2010],
  ["COc1ccc2c(c1)C(=O)N(C[C@@]1(c3cc4nc(NS(=O)(=O)C5CC5)ccc4o3)NC(=O)NC1=O)C2", 15]
]}

----------
Entries and their pKi
target under test: purified catalytic domain of recombinant human TACE (rhTACEc) (Homo sapiens, UniProt P78536, N452Q/S266A)
Construct: 6xHis (C); made in house; host or cells: baculovirus/Hi5 insect cells
assay protocol: TACE kinetic assay: cleavage of internally quenched peptide substrate TNF-FRET 2 (Ki)
Assay type: biochemical
conditions used: TNF-FRET 2 substrate, read-out: Ki
pKi: −log10 of the molar value.

{"columns": ["molecule", "pKi"],
 "data": [
  ["COCCNC(=O)c1cnc2cc([C@]3(CN4Cc5ccc(OC)cc5C4=O)NC(=O)NC3=O)oc2c1 [Compound 2467]", 9.14],
  ["COc1ccc2c(c1)C(=O)N(C[C@@]1(c3cc4cc(-c5c(N)noc5C)ccc4o3)NC(=O)NC1=O)C2 [Compound 2261]", 9.46],
  ["COc1ccc2c(c1)C(=O)N(C[C@@]1(c3cc4cc(-c5cnn(C)c5)ncc4o3)NC(=O)NC1=O)C2 [Compound 306]", 9.18],
  ["COc1ccc2c(c1F)C(=O)N(C[C@@]1(c3cc4c5c(ccc4o3)C(=O)NC5)NC(=O)NC1=O)C2 [Compound 2506]", 9.49],
  ["COc1ccc2c(c1F)C(=O)N(C[C@@]1(c3cc4nc(N5CCN(C6CC6)CC5)ccc4o3)NC(=O)NC1=O)C2 [Compound 1711]", 9.30],
  ["COc1ccc2c(c1)C(=O)N(C[C@@]1(c3cc4cc(-c5ccncc5)ccc4o3)NC(=O)NC1=O)C2 [Compound 2194]", 9.13],
  ["COc1ccc2c(c1)C(=O)N(C[C@@]1(c3cc4nc(-c5cccc(O)c5)ccc4o3)NC(=O)NC1=O)C2 [Compound 1902]", 9.55]
]}

----------
Entries and their Ki
target under test: purified catalytic domain of recombinant human TACE (rhTACEc) (Homo sapiens, UniProt P78536, N452Q/S266A)
Construct: 6xHis (C); made in house; host or cells: baculovirus/Hi5 insect cells
assay protocol: TACE kinetic assay: cleavage of internally quenched peptide substrate TNF-FRET 2 (Ki)
Format: biochemical
conditions used: TNF-FRET 2 substrate, read-out: Ki
recorded metric: Ki (nM)

{"columns": ["molecule", "reading unit", "numeric value"],
 "data": [
  ["COc1ccc2c(c1)C(=O)N(C[C@@]1(c3cc4nc(N5CCC(O)CC5)ccc4o3)NC(=O)NC1=O)C2 [Compound 2172]", "nM", 0.577],
  ["O=C1NC(=O)[C@](CN2Cc3ccc(OCC4CC4)c(F)c3C2=O)(c2cc3cc4c(c(F)c3o2)C(=O)NC4)N1 [Compound 2493]", "nM", 0.49],
  ["COc1ccc2c(c1)C(=O)N(C[C@@]1(c3cc4c(C(C)O)nccc4o3)NC(=O)NC1=O)C2 (stereo partly drawn) [Compound 2294]", "nM", 0.553],
  ["O=C1NC(=O)C(CN2Cc3ccccc3C2=O)(c2ccc(Br)cc2)N1 (stereo not drawn) [Compound 1296]", "nM", 7],
  ["COc1ccc2c(c1)C(=O)N(C[C@@]1(c3ccc(C(=O)NS(C)(=O)=O)cc3)NC(=O)NC1=O)C2 [Compound 2406]", "nM", 5.38],
  ["CN(C)C1CCN(c2ccc3oc(C4(CN5CCc6ccsc6C5=O)NC(=O)NC4=O)cc3n2)CC1 (stereo not drawn) [Compound 2495]", "nM", 0.71],
  ["CCNC(=O)OCc1cnc2cc([C@]3(CN4Cc5ccc(OC)cc5C4=O)NC(=O)NC3=O)oc2c1 [Compound 1944]", "nM", 0.69],
  ["CNC1CCN(c2ccc3oc([C@]4(CN5Cc6ccc(OC)cc6C5=O)NC(=O)NC4=O)cc3n2)CC1 [Compound 2139]", "nM", 1.44],
  ["COc1ccc2c(c1)C(=O)N(C[C@@]1(c3cc4c(o3)CCN(C(N)=O)C4)NC(=O)NC1=O)C2 [Compound 318]", "nM", 5.62],
  ["COc1ccc2c(c1F)C(=O)N(C[C@@]1(c3cc4nc(-n5ccnc5)ccc4o3)NC(=O)NC1=O)C2 [Compound 1523]", "nM", 0.6],
  ["O=C1NC(=O)[C@](CN2Cc3ccc(O)c(I)c3C2=O)(c2cc3ncccc3o2)N1 [Compound 1736]", "nM", 53.5],
  ["COc1ccc2c(c1)C(=O)N(C[C@@]1(c3cc4ccc(NC(C)=O)nc4o3)NC(=O)NC1=O)C2 [Compound 2249]", "nM", 0.65],
  ["COc1ccc2c(c1)C(=O)N(C[C@@]1(c3cc4cnc(C)cc4o3)NC(=O)NC1=O)C2 [Compound 2258]", "nM", 0.366],
  ["COc1ccc2c(c1)C(=O)N(C[C@@]1(c3cc4cc(C(C)=O)cnc4o3)NC(=O)NC1=O)C2 [Compound 2433]", "nM", 0.731],
  ["COc1ccc2c(c1)C(=O)N(C[C@@]1(c3cc4cc(C5(C)NC(=O)NC5=O)c(F)cc4o3)NC(=O)NC1=O)C2 (stereo partly drawn) [Compound 2200]", "nM", 1.85]
]}
